Please provide measured CC50 at 72 h for the entries that follow.
# experimental protocol: Mammalian cell toxicity, MTT, Vero cells
# Format: cell-based
# assay context: African green monkey, Vero cells, 72 h, MTT; read-out: Mammalian cells Vero CC50 ± SD
# Procedure: Vero cells and THP-1 cells transformed into adherent macrophages with PMA in 96 microwell plates where they were treated with compounds (0-350 μM) during 72 h at 37 °C, 5% CO2-95% air mixture. The viability of the cells was evaluated by using the tetrazolium-dye (MTT) colorimetric method. […] The samples were read using an ELISA plate reader at a wavelength of 580 nm. […] The data were calculated by linear regression using the software ([…]; GO Business Solution, Guildford, UK). […]

Recorded results for 5 compounds are shown here.
compound	CC50 at 72 h
O=C(CCl)NCCCNC(=O)CCl	32.7 µM
O=C1CSC(c2cccnc2)N1CCN1C(=O)CSC1c1cccnc1 (stereo not drawn)	> 250 µM
O=C1CSC(c2ccccc2)N1CCCCN1C(=O)CSC1c1ccccc1 (stereo not drawn)	> 250 µM
O=C1CSC(c2ccncc2)N1CCCCN1C(=O)CSC1c1ccncc1 (stereo not drawn)	> 250 µM
CC1CS(=O)(=O)CCN1/N=C/c1ccc([N+](=O)[O-])o1 (stereo not drawn) [Nif, Nifurtimox, reference compound]	76.5 µM

// batch mode: one CC50 at 72 h value per listed entry
1. COc1ccc(CNCCNCc2ccc(OC)c(O)c2)cc1O
2. c1ccc(CNCCNCc2ccccc2)cc1
3. COc1ccc(CNCCCCNCc2ccc(OC)c(O)c2)cc1O
4. c1cncc(CNCCCCNCc2cccnc2)c1

1: > 300 µM; 2: 75.3 µM; 3: > 250 µM; 4: > 300 µM
